# System: SN12C
# Run description: NCI tumour cell line growth inhibition, 48 h
Active and inactive are the calls of the source. Cut-off read from the data, not from the text of the source: active = GI50 up to about 1.1 µM and inactive = higher.
Your response should consist of one outcome taken from yes for active, no for inactive

| Compound | Assigned category |
| --- | --- |
| O=C(N/N=C\c1cccc2c([N+](=O)[O-])cccc12)Nc1ccccc1 | no |
| C=CCOC1OC(CO[Si](C)(C)C(C)(C)C)C(OCc2ccccc2)C(OCc2ccccc2)C1OCc1ccccc1 (centres undefined) | no |

Please turn your attention to the following entry.
[in] What call does the record list for O=C(CN1C(=O)c2ccccc2C1=O)C(O)CN1C(=O)c2ccccc2C1=O (centres undefined) ?
[out] no

* * *

# System: ACHN
# Run description: NCI tumour cell line growth inhibition, 48 h
Activity calls are given as the source filed them. Cut-off read from the data, not from the text of the source: active = GI50 up to about 1.1 µM and inactive = higher.
Property: GI50; scope: individual compounds

As a guide, the following entries are already answered.
| Compound | Experimental system | GI50 |
| --- | --- | --- |
| O=C(CCCn1cnc([N+](=O)[O-])n1)NCCn1ccnc1[N+](=O)[O-] | ACHN | > 100 µM (inactive) |
| Nc1nc2sc3ccccc3c(=O)n2n1 | ACHN | > 100 µM (inactive) |
| COc1cc(/C=N/N=C(\N)NO)cc(Cl)c1O | ACHN | 34.4 µM (inactive) |

Reported GI50 of `CCCCNC(=O)c1cc(S(=O)(=O)n2ccnc2O)c(SC)cc1Cl` : > 100 µM (inactive)

For reference, reported GI50 for CC(C)(C)OCC1NC(=O)[C@@H]2Cc3c([nH]c4ccccc34)C(C3CCCCC3)N2C1=O (stereo partly specified) stands at 27 µM (inactive)

GI50 recorded for this compound, O=C1NC(=O)C(C(CC(=O)c2ccc([N+](=O)[O-])cc2)c2ccccc2)C(=O)N1 (stereo unspecified) , is > 100 µM (inactive)

Data point: `C[C@]12CC[C@@H]3c4ccc(O)cc4CC[C@H]3[C@@H]1CC[C@@H]2OC(=O)CCc1ccccc1` ; GI50 = 18.7 µM (inactive)

Lookup result for `CC(=O)Oc1cccc2c1C(=O)CCCC2` ; measured GI50: > 100 µM (inactive)

// field: GI50; key: `COc1nc(O)nc2c1C(c1ccc([N+](=O)[O-])cc1)c1c(OC)nc(O)nc1O2` ; value = > 100 µM (inactive)

Noted for `O=C1c2cccc(O)c2C(=O)c2c(O)cccc21` : its GI50 reads > 100 µM (inactive)

Lab book: GI50 of `CC1(C)C(=S)C(C)(C)C1=S` noted as > 100 µM (inactive)

* * *

# System: HT-29
# Run description: NCI tumour cell line growth inhibition, 48 h
Calls of active or inactive are those of the source. Rule as the data show it: active = GI50 up to about 1.1 µM and inactive = higher.
Below is a list of entries, each paired with its recorded GI50 value.

Record excerpt, results attached:
| Molecule | Experimental system | GI50 |
| --- | --- | --- |
| Cc1nc2ccc(F)cc2c(Cl)c1CCCl | HT-29 | 25 µM (inactive) |
| O=C(n1c(=O)n(-c2ccc(Cl)cc2)c(=O)n1C(=O)C(Cl)(Cl)Cl)C(Cl)(Cl)Cl | HT-29 | > 100 µM (inactive) |
| CCCCCC(C(O)C#N)C(O)(C(F)(F)F)C(F)(F)F (stereo not given) | HT-29 | > 10 µM (inactive) |
| CC12CCC3c4ccc(O)cc4CCC3C1C/C(=N\O)C2O (stereo not given) | HT-29 | 77.6 µM (inactive) |

Next molecule, please.
The measured GI50 associated with COC(=O)C(=O)C(C(=O)C(=O)Nc1ccc(OC)cc1[N+](=O)[O-])c1nc2ccc([N+](=O)[O-])cc2nc1O (stereo not given) reads > 100 µM (inactive)
